- RUN DESCRIPTION: Clearance in mouse at 3 mg/kg, iv
- Format: ADME, organism-based
- CONDITION INFO: in vivo
ENDPOINT LABEL: clearance (mL/min/kg)

# QUERY SMILES, ENDPOINT LABEL, VAL
rows = [
    ("O=C1NCc2nc(-c3c(F)cccc3F)cc(Nc3ccc(C(=O)N4CCCC4)cc3)c21", "clearance", 28),
]

====

- RUN DESCRIPTION: Plasma protein binding in mouse assessed as unbound fraction

# QUERY SMILES, fraction unbound
records = [
    ("O=C1NCc2nc(-c3c(F)cccc3F)cc(Nc3ccc(C(=O)N4CCOCC4)cc3)c21", 0.24),
    ("O=C1NCc2nc(-c3c(F)cccc3F)cc(Nc3ccc(C(=O)N4CCCC4)cc3)c21", 0.061),
    ("CCNC(=O)c1ccc(Nc2cc(-c3c(F)cccc3F)nc3c2C(=O)NC3)nc1", 0.16),
]

====

- Species on record: Homo sapiens
- RUN DESCRIPTION: Ratio Ki for inhibition of JAK2 (unknown origin) over TYK2 JH1 domain (unknown origin)
ENDPOINT LABEL: Ratio Ki

# COMPOUND, VAL
data = [
    ("NC(=O)c1cnc(-c2c(F)cccc2F)nc1Nc1ccc(CC(=O)O)cc1", 74),
    ("O=C1NCc2nc(-c3c(F)cccc3F)cc(Nc3ccc(N4CCC(O)CC4)cn3)c21", 120),
    ("COc1ccc(Nc2nc(-c3c(F)cccc3F)nc3c2C(=O)NC3)cc1", 240),
    ("CCNC(=O)c1ccc(Nc2cc(-c3c(F)cccc3F)nc3c2C(=O)NC3)nc1", 170),
    ("CCNC(=O)c1ccc(Nc2cc(-c3c(F)cccc3Cl)nc3c2C(=O)NC3)nc1", 12),
    ("NC(=O)c1ccc(NC(=O)c2ccc[nH]c2=O)cc1", 1.1),
    ("N#Cc1cccc(F)c1-c1cc(Nc2ccc(N3CCOCC3)cn2)c2c(n1)CNC2=O", 26),
    ("O=C1NCc2nc(-c3c(F)cccc3F)cc(Nc3ccc(C(=O)N4CCOCC4)cn3)c21", 18),
    ("O=C1NCc2nc(-c3c(F)cccc3F)nc(Nc3ccc(CC(=O)N4CCOCC4)cc3)c21", 47),
    ("O=C1NCc2nc(-c3c(F)cccc3F)nc(Nc3ccc(CC(=O)N4CCN(CC(F)F)CC4)cc3)c21", 24),
    ("CCNC(=O)Cc1ccc(Nc2nc(-c3c(F)cccc3F)nc3c2C(=O)NC3)cc1", 30),
    ("O=C1NCc2nc(-c3c(F)cccc3F)nc(Nc3ccc(C4CCCNC4=O)cc3)c21 (stereo in doubt; 15a)", 83),
    ("O=C1NCc2nc(-c3c(F)cccc3F)cc(Nc3ccc(N4CCOCC4=O)cn3)c21", 77),
    ("CC(C)c1nc(Nc2ccc(C(=O)O)cc2)c2c(=O)[nH]ccc2n1", 2.5),
    ("O=C1NCc2nc(-c3c(F)cccc3F)cc(Nc3ccc(C(=O)N4CCOCC4)cc3)c21", 35),
    ("CCNC(=O)Cc1ccc(Nc2cc(-c3c(F)cccc3F)nc3c2C(=O)NC3)nc1", 72),
    ("CCNC(=O)C(C)(O)c1ccc(Nc2nc(-c3c(F)cccc3F)nc3c2C(=O)NC3)cc1 (stereo in doubt; 13a)", 300),
    ("CCNC(=O)c1ccc(Nc2cc(-c3c(F)cccc3C#N)nc3c2C(=O)NC3)nc1", 15),
    ("O=C1NCc2nc(-c3c(F)cccc3F)nc(Nc3ccc(C4CCNC4=O)cc3)c21 (stereo in doubt; 14a)", 35),
]

====

Reported Ratio Ki is given for each of the following compounds.
- Organism: Homo sapiens
- RUN DESCRIPTION: Ratio Ki for inhibition of JAK3 (unknown origin) over TYK2 JH1 domain (unknown origin)
ENDPOINT LABEL: Ratio Ki

# COMPOUND, VAL
measured = [
    ("CCNC(=O)Cc1ccc(Nc2nc(-c3c(F)cccc3F)nc3c2C(=O)NC3)cc1", 4.6),
    ("N#Cc1cccc(F)c1-c1cc(Nc2ccc(N3CCOCC3)cn2)c2c(n1)CNC2=O", 170),
    ("NC(=O)c1ccc(NC(=O)c2ccc[nH]c2=O)cc1", 2.3),
    ("O=C1NCc2nc(-c3c(F)cccc3F)cc(Nc3ccc(C(=O)N4CCOCC4)cn3)c21", 2.3),
    ("CCNC(=O)c1ccc(Nc2cc(-c3c(F)cccc3C#N)nc3c2C(=O)NC3)nc1", 69),
    ("CC(C)c1nc(Nc2ccc(C(=O)O)cc2)c2c(=O)[nH]ccc2n1", 1.3),
    ("CCNC(=O)C(C)(O)c1ccc(Nc2nc(-c3c(F)cccc3F)nc3c2C(=O)NC3)cc1 (stereo in doubt; 13b)", 13),
    ("O=C1NCc2nc(-c3c(F)cccc3F)nc(Nc3ccc(C4CCCNC4=O)cc3)c21 (stereo in doubt; 15a)", 19),
    ("CCNC(=O)Cc1ccc(Nc2cc(-c3c(F)cccc3F)nc3c2C(=O)NC3)nc1", 5.7),
]

====

In this section we review reported solubility thermodynamic values for a set of molecules.
- RUN DESCRIPTION: Thermodynamic solubility in fasted simulated intestinal fluid
- Assay type: physicochemical
- CONDITION INFO: read-out: Therm_solubility
ENDPOINT LABEL: solubility thermodynamic (µM)

# QUERY SMILES, ENDPOINT LABEL, UNIT INFO, VAL
rows = [
    ("CCNC(=O)c1ccc(Nc2cc(-c3c(F)cccc3F)nc3c2C(=O)NC3)nc1", "solubility thermodynamic", "µM", 15),
    ("O=C1NCc2nc(-c3c(F)cccc3F)cc(Nc3ccc(N4CCOCC4=O)cn3)c21", "solubility thermodynamic", "µM", 24),
    ("O=C1NCc2nc(-c3c(F)cccc3F)cc(Nc3ccc(C(=O)N4CCCC4)cc3)c21", "solubility thermodynamic", "µM", 240),
    ("O=C1NCc2nc(-c3c(F)cccc3F)cc(Nc3ccc(C(=O)N4CCOCC4)cc3)c21", "solubility thermodynamic", "µM", 148),
]

====

- RUN DESCRIPTION: Kinetic solubility of compound at pH 7.4
- CONDITION INFO: buffer
Listed compounds paired with reported solubility kinetic
ENDPOINT LABEL: solubility kinetic (µM)

# QUERY SMILES, VAL
measured = [
    ("O=C1NCc2nc(-c3c(F)cccc3F)cc(Nc3ccc(N4CCC(O)CC4)cn3)c21", 65),
    ("O=C1NCc2nc(-c3c(F)cccc3F)cc(Nc3ccc(C(=O)N4CC[C@H](O)C4)cc3)c21", 290),
    ("O=C1NCc2nc(-c3c(F)cccc3F)cc(Nc3ccc(N4CCOCC4)cn3)c21", 12),
    ("O=C1NCc2nc(-c3c(F)cccc3F)cc(Nc3ccc(C(=O)N4CCOCC4)cc3)c21", 170),
    ("CCNC(=O)c1ccc(Nc2cc(-c3c(F)cccc3F)nc3c2C(=O)NC3)nc1", 3.1),
    ("O=C1NCc2nc(-c3c(F)cccc3F)cc(Nc3ccc(N4CCOCC4=O)cn3)c21", 8.9),
    ("O=C1NCc2nc(-c3c(F)cccc3F)cc(Nc3ccc(C(=O)N4CCCC4)cc3)c21", 270),
    ("CCNC(=O)Cc1ccc(Nc2cc(-c3c(F)cccc3F)nc3c2C(=O)NC3)nc1", 0.6),
    ("CCNC(=O)Cc1ccc(Nc2nc(-c3c(F)cccc3F)nc3c2C(=O)NC3)cc1", 1.2),
    ("O=C1NCc2nc(-c3c(F)cccc3F)cc(Nc3ccc(N4CCC(F)(F)CC4)cn3)c21", 2.4),
]

====

- Species: Homo sapiens
- RUN DESCRIPTION: Ratio Ki for inhibition of JAK1 (unknown origin) over TYK2 JH1 domain (unknown origin)
Lab note: compare Ratio Ki against 90. Equal or greater, write y. Smaller, write n.

# COMPOUND, CATEGORY LABEL
rows = [
    ("CCNC(=O)Cc1ccc(Nc2cc(-c3c(F)cccc3F)nc3c2C(=O)NC3)nc1", "n"),
    ("O=C1NCc2nc(-c3c(F)cccc3F)cc(Nc3ccc(C(=O)N4CC[C@H](O)C4)cc3)c21", "y"),
    ("O=C1NCc2nc(-c3c(F)cccc3F)cc(Nc3ccc(N4CCC(F)(F)CC4)cn3)c21", "y"),
    ("O=C1NCc2nc(-c3c(F)cccc3F)nc(Nc3ccc(C4CCNC4=O)cc3)c21 (stereo in doubt; 14a)", "n"),
    ("O=C1NCc2nc(-c3c(F)cccc3F)nc(Nc3ccc(C4CCCNC4=O)cc3)c21 (stereo in doubt; 15a)", "n"),
    ("CCNC(=O)C(C)(O)c1ccc(Nc2nc(-c3c(F)cccc3F)nc3c2C(=O)NC3)cc1 (stereo in doubt; 13a)", "n"),
    ("COc1ccc(Nc2nc(-c3c(F)cccc3F)nc3c2C(=O)NC3)cc1", "n"),
    ("CCNC(=O)c1ccc(Nc2cc(-c3c(F)cccc3Cl)nc3c2C(=O)NC3)nc1", "n"),
]
